Target: Thymidylate synthase (EC 2.1.1.45) (TS) (TSase) (Escherichia coli, UniProt E2QDN0)
Sequence (E2QDN0 whole entry): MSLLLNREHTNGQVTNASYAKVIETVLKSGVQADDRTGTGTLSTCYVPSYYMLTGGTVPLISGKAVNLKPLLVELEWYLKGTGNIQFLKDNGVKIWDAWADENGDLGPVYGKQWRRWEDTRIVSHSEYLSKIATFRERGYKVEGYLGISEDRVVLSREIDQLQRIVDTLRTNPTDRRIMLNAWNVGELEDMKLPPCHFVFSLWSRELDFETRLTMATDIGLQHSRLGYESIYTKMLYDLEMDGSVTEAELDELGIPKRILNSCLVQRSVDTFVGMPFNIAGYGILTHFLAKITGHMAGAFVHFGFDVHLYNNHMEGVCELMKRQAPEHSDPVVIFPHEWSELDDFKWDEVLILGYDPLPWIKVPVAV
Assay: Inhibition of Escherichia coli TS assessed as oxidation of tetrahydrofolate to dihydrofolate after 2 to 12 mins by spectrophotometry
Output True for records whose IC50 is lower than 50 nM, False for records at or above 50 nM.

Here's what some known entries look like.
Cc1nc2sc3cccc(CNc4ccc5c(c4)CN([C@@H](CCC(=O)O)C(=O)O)C5=O)c3c2c(=O)[nH]1; False
Nc1nc2sc3cccc(CNc4ccc(C(=O)N[C@@H](CCC(=O)O)C(=O)O)cc4)c3c2c(=O)[nH]1; True
Cc1nc2sc3cccc(CNc4ccc(C(=O)N[C@@H](CCC(=O)O)C(=O)O)cc4)c3c2c(=O)[nH]1; False
Nc1nc2[nH]cc(CCc3ccc(C(=O)N[C@@H](CCC(=O)O)C(=O)O)cc3)c2c(=O)[nH]1; False

Continue with the next molecule.
Enquiry: Say whether its IC50 is strictly beneath 50 nM. Entry: "Cc1nc2ccc3ccc(CNc4ccc5c(c4)CN([C@@H](CCC(=O)O)C(=O)O)C5=O)cc3c2c(=O)[nH]1"
Return: True
